study target: FXI
measurement protocol: Kd (SPR)
quantity measured: Kd
# number then unit; no other words

binder | Kd
unnamed (protein) chain 1: EVQLLESGGGLVQPGGSLRLSCAASGFTFSSYAMDWVRQAPGKGLEWVSGISSDGGSTVYADSVKGRFTISRDNSKNTLYLQMNSLRAEDTAVYYCARGGPAYYYGFDVWGQGTTVTVSS chain 2: DIQMTQSPSSLSASVGDRVTITCQASQDISNYLNWYQQKPGKAPKLLIYDASNLETGVPSRFSGSGSGTDFTFTISSLQPEDIATYYCQQADSFPVTFGGGTKVEIK | 310 nM

Item unnamed (protein) chain 1: EVQLLESGGGLVQPGGSLRLSCAASGFTFSQYGMDWVRQAPGKGLEWVSGIGPSGGSTVYADSVKGRFTISRDNSKNTLYLQMNSLRAEDTAVYYCTRGGTAYYYAFDVWGQGTTVTVSS chain 2: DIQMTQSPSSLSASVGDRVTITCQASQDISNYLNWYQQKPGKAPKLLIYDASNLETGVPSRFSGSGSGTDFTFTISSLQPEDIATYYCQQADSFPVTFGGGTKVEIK : provide Kd 1410 nM

Item unnamed (protein) chain 1: EVQLLESGGGLVQPGGSLRLSCAASGFTFSQYGMDWVRQAPGKGLEWVSGIGPSGGSTVYADSVKGRFTISRDNSKNTLYLQMNSLRAEDTAVYYCTRDGPAWYYAFDVWGQGTTVTVSS chain 2: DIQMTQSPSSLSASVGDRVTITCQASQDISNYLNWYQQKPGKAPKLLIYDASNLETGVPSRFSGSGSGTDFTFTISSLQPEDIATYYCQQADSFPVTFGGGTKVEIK : provide Kd 51.7 nM
